Assay: Urinary excretion of drug after rectal administration of suppositories to fasted rabbits (bioassay)
Assay type: in vivo
Details: rabbit, in vivo, 100 mg, rectal suppository, 100 mg in potency, base WITEPSOL H-5, additive Na caprate, 3% Sodium carbonate, 4%, read-out: Urinary excretion (0-6 hours)
measuredParameter: dose excreted at 6 h (%)
Value expressed in %; do not type the unit.

What measured dose excreted at 6 h goes with `NCC[C@H](O)C(=O)N[C@@H]1C[C@H](N)[C@@H](O[C@H]2O[C@H](CN)[C@@H](O)[C@H](O)[C@H]2O)[C@H](O)[C@H]1O[C@H]1O[C@H](CO)[C@@H](O)[C@H](N)[C@H]1O` ?
55.5

###

Assay: Urinary excretion of drug after rectal administration of suppositories to fasted rabbits (bioassay)
Type: in vivo
Conditions: rabbit, urine, 100 mg, rectal suppository, 100 mg in potency, base WITEPSOL W-35, additive Na caprate, 3% Disodium phosphate,3%, read-out: Urinary excretion (0-6 hours)
measuredParameter: dose excreted at 6 h (%)
# value in %; strip the unit string

Look at this compound and give its reported dose excreted at 6 h. `NC[C@H]1O[C@H](O[C@H]2[C@H](O)[C@@H](O[C@H]3O[C@H](CO)[C@@H](O)[C@H](N)[C@H]3O)[C@H](N)C[C@@H]2N)[C@H](N)[C@@H](O)[C@@H]1O`
40

###

Assay: Urinary excretion of drug after rectal administration of suppositories to fasted rabbits (bioassay)
Format: in vivo
Conditions: rabbit, urine, 100 mg, rectal suppository, 100 mg in potency, base WITEPSOL H-5, additive Na caprate, 3% NIKKOL TO-10M, 4%, read-out: Urinary excretion (0-6 hours)
measuredParameter: dose excreted at 6 h (%)
The reply should be a number in %, with the unit left off.

Need dose excreted at 6 h, item `CCN[C@@H]1C[C@H](N)[C@@H](O[C@H]2OC(CN)=CC[C@H]2N)[C@H](O)[C@H]1O[C@H]1OC[C@](C)(O)[C@H](NC)[C@H]1O`
52.6

###

Test: Urinary excretion of drug after rectal administration of suppositories to fasted rabbits (bioassay)
Format: in vivo
Conditions: rabbit, urine, 100 mg, rectal suppository, 100 mg in potency, base WITEPSOL H-5, additive Na caprate, 3% Lysine, 4%, read-out: Urinary excretion (0-6 hours)
measuredParameter: dose excreted at 6 h (%)
Give your result in % as a bare value.

Endpoint output: dose excreted at 6 h of CCN[C@@H]1C[C@H](N)[C@@H](O[C@H]2OC(CN)=CC[C@H]2N)[C@H](O)[C@H]1O[C@H]1OC[C@](C)(O)[C@H](NC)[C@H]1O [Netilmicin] . Value?
48

###

Assay: Blood concentration of drug after rectal administration of suppositories to fasted dogs (bioassay)
Format: in vivo
Settings: dog, blood, 100 mg, rectal suppository, 100 mg in potency, base WITEPSOL H-5, additive None, read-out: AUC
measuredParameter: AUC (ng·h/mL)
The reply should be a number in ng·h/mL, with the unit left off.

Given NC[C@@H]1CC[C@@H](N)[C@@H](O[C@H]2[C@H](O)[C@@H](O[C@H]3O[C@H](CO)[C@@H](O)[C@H](N)[C@H]3O)[C@H](N)C[C@@H]2N)O1 [Dibekacin] , state its recorded AUC.
800

###

Test: Blood concentration of drug after rectal administration of suppositories to fasted dogs (bioassay)
Assay type: in vivo
Conditions: dog, blood, 100 mg, rectal suppository, 100 mg in potency, base WITEPSOL H-5, additive Na caprate, 3% NIKKOL MYS-40, 4%, read-out: AUC
Please respond with reported AUC for every item in the list.
Form entry: value (ng·h/mL) — number only.

# AUC lookup, item `NC[C@@H]1CC[C@@H](N)[C@@H](O[C@H]2[C@H](O)[C@@H](O[C@H]3O[C@H](CO)[C@@H](O)[C@H](N)[C@H]3O)[C@H](N)C[C@@H]2N)O1`
27400

# query: AUC of entry `CO/N=C(\C(=O)N[C@@H]1C(=O)N2C(C(=O)O)=C(CSc3nc(=O)c(=O)[nH]n3C)CS[C@H]12)c1csc(N)n1`
22200

###

Experiment: Urinary excretion of drug after rectal administration of suppositories to fasted rabbits (bioassay)
Type: in vivo
Conditions: rabbit, urine, 100 mg, rectal suppository, 100 mg in potency, base WITEPSOL W-35, additive Na caprate, 3%, read-out: Urinary excretion (0-6 hours)
measuredParameter: dose excreted at 6 h (%)
# unit: % | format: bare number

GET /values?readout=dose excreted at 6 h&item= NC[C@H]1O[C@H](O[C@H]2[C@H](O)[C@@H](O[C@H]3O[C@H](CO)[C@@H](O)[C@H](N)[C@H]3O)[C@H](N)C[C@@H]2N)[C@H](N)[C@@H](O)[C@@H]1O [Bekanamycin]
30.1

###

Experiment: Urinary excretion of drug after rectal administration of suppositories to fasted rabbits (bioassay)
Type: in vivo
Settings: rabbit, urine, 100 mg, rectal suppository, 100 mg in potency, base WITEPSOL H-5, additive Na caprate, 3%, read-out: Urinary excretion (0-6 hours)
measuredParameter: dose excreted at 6 h
Respond with a number, then the unit of measure.

Dear colleague, I am looking for the recorded dose excreted at 6 h of the following compound: `CCN[C@@H]1C[C@H](N)[C@@H](O[C@H]2OC(CN)=CC[C@H]2N)[C@H](O)[C@H]1O[C@H]1OC[C@](C)(O)[C@H](NC)[C@H]1O`
40%

###

Experiment: Urinary excretion of drug after rectal administration of suppositories to fasted rabbits (bioassay)
Type: in vivo
Conditions: rabbit, in vivo, 100 mg, rectal suppository, 100 mg in potency, base WITEPSOL H-5, additive Na caprate, 3% NIKKOL MYS-40, 4%, read-out: Urinary excretion (0-6 hours)
measuredParameter: dose excreted at 6 h (%)
Report the figure in % without appending any unit label.

# dose excreted at 6 h lookup, item `NCC[C@H](O)C(=O)N[C@@H]1C[C@H](N)[C@@H](O[C@H]2O[C@H](CN)[C@@H](O)[C@H](O)[C@H]2O)[C@H](O)[C@H]1O[C@H]1O[C@H](CO)[C@@H](O)[C@H](N)[C@H]1O`
56

###

Assay: Blood concentration of drug after rectal administration of suppositories to fasted dogs (bioassay)
Format: in vivo
Details: dog, in vivo, 100 mg, rectal suppository, 100 mg in potency, base WITEPSOL H-5, additive Na caprate, 3% Lysine, 4%, read-out: AUC
measuredParameter: AUC

So what's the measured AUC for this one? `CC(C)(O/N=C(\C(=O)N[C@@H]1C(=O)N2C(C(=O)[O-])=C(C[n+]3ccccc3)CS[C@H]12)c1csc(N)n1)C(=O)O`
30100 ng·h/mL

###

Test: Blood concentration of drug after rectal administration of suppositories to fasted dogs (bioassay)
Format: in vivo
Details: dog, blood, 100 mg, rectal suppository, 100 mg in potency, base WITEPSOL H-5, additive Na caprate, 3% Sodium carbonate, 4%, read-out: AUC
measuredParameter: AUC (ng·h/mL)
Provide only the numeric value, understood in ng·h/mL.

Look up AUC for this molecule: `NC[C@@H]1CC[C@@H](N)[C@@H](O[C@H]2[C@H](O)[C@@H](O[C@H]3O[C@H](CO)[C@@H](O)[C@H](N)[C@H]3O)[C@H](N)C[C@@H]2N)O1`
24400

###

Experiment: Blood concentration of drug after rectal administration of suppositories to fasted dogs (bioassay)
Format: in vivo
Conditions: dog, in vivo, 100 mg, rectal suppository, 100 mg in potency, base WITEPSOL H-5, additive Na caprate, 3% Na citrate, 4%, read-out: AUC
measuredParameter: AUC

Sample `CC(C)(O/N=C(\C(=O)N[C@@H]1C(=O)N2C(C(=O)[O-])=C(C[n+]3ccccc3)CS[C@H]12)c1csc(N)n1)C(=O)O` — what was its AUC?
27600 ng·h/mL

###

Test: Blood concentration of drug after rectal administration of suppositories to fasted dogs (bioassay)
Format: in vivo
Details: dog, blood, 100 mg, rectal suppository, 100 mg in potency, base WITEPSOL H-5, additive Na caprate, 3%, read-out: AUC
measuredParameter: AUC (ng·h/mL)
Kindly answer with a numeric value in ng·h/mL, unit omitted.

I'd like to know its AUC. The compound in question is NC[C@@H]1CC[C@@H](N)[C@@H](O[C@H]2[C@H](O)[C@@H](O[C@H]3O[C@H](CO)[C@@H](O)[C@H](N)[C@H]3O)[C@H](N)C[C@@H]2N)O1 [Dibekacin]
14400

###

Assay: Urinary excretion of drug after rectal administration of suppositories to fasted rabbits (bioassay)
Type: in vivo
Conditions: rabbit, in vivo, 100 mg, rectal suppository, 100 mg in potency, base WITEPSOL W-35, additive Na caprate, 2% NIKKOL BL-9, 4%, read-out: Urinary excretion (0-6 hours)
measuredParameter: dose excreted at 6 h (%)
Could you give me the number in %? Just the number is fine.

Given the entry `NC[C@H]1O[C@H](O[C@H]2[C@H](O)[C@@H](O[C@H]3O[C@H](CO)[C@@H](O)[C@H](N)[C@H]3O)[C@H](N)C[C@@H]2N)[C@H](N)C[C@@H]1O` , report its measured dose excreted at 6 h.
53.8
